Data origin: ChEMBL document CHEMBL1142158

Listed next: entries and their corresponding selectivity ratio.
Assay: Therapeutic index, CC50 for MRC5 cells/MIC for Staphylococcus aureus Smith
Format: cell-based
Conditions: human

[
  {
    "MOLECULE": "CC1CN(c2c(F)cc3c(=O)c(C(=O)O)cn(C4CC4)c3c2F)CCN1 (configuration not stated)",
    "selectivity ratio": "> 1000"
  }
]

Query molecule follows.
Task item: Quick one: selectivity ratio of CCc1cc(Nc2cc(=O)n(CCCCN3CCN(c4c(F)cc5c(=O)c(C(=O)O)cn(C6CC6)c5c4F)CC3C)c(=O)[nH]2)ccc1C (configuration not stated) ?
Reply: > 128
